System: MOLT-4 leukemia
assay_text: NCI-60 one-dose screen, 48 h (100 = growth as untreated, 0 = no growth, -100 = all killed)
experimental_conditions: 10 µM unless noted
About 83,000 compounds went through this panel and 20% of them were active in at least one assay; those are over-represented in the sample as a whole.
Property: growth; scope: individual compounds

smiles_code | study_system | growth, %
Oc1[nH]c2ccccc2c1/C=c1/cc2c(c(-c3ccc(F)cc3)n1)=Nc1ccccc1-2 | MOLT-4 leukemia | -15.6
COc1cc(C(=O)/C=C/c2c(C(F)(F)F)nc3ccccn23)cc(OC)c1OC | MOLT-4 leukemia | 4.22
CS(=O)(=O)c1ccc(-c2[nH]c3ccc(F)cc3c2/C=N/NC(N)=S)cc1 | MOLT-4 leukemia | 11.7
O=C1N/C(=N/O)S/C1=C/c1cn(-c2ccccc2)nc1-c1ccccc1 | MOLT-4 leukemia | 91.9
CN1CCN(CCCOc2ccc3nc(Nc4cc(Cl)cc(Cl)c4)ccc3c2)CC1 | MOLT-4 leukemia | -67.8

From: PubChem BioAssay (NCI)
